# protocol_description: blockers of RIG-like receptor reporter activation – cell-based, Sendai virus stimulus, luciferase, 10K MLSCN set, TLR/RLR signaling modifier project, primary screen (AID 602276);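 note: firefly luciferase from ISG56 promoter only with Renilla not read in this screen; 0% = Sendai virus plus DMSO and 100% = medium plus DMSO without virus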
# conditions_used: HEK293 RL24 IRF3 luciferase reporter, at 10 µM, stronger effect = higher value
We begin with a simple list: items and their reported inhibition.
Give a bare numeral; the unit % is implied.

Solved cases (10 shown):
{"chem_smiles": "Cc1nc(N)c(C#N)c(-c2cccnc2)c1C", "inhibition [%]": 4.72}
{"chem_smiles": "Cn1cc(-c2nc3ccccc3[nH]2)c2ccccc21", "inhibition [%]": -9.53}
{"chem_smiles": "C=CCSc1nc(N)c(C(=O)Nc2ccccc2C)cc1C(N)=O", "inhibition [%]": -4.85}
{"chem_smiles": "Cc1ccc(/C=c2\\sc3nc(-c4ccccc4Br)nn3c2=O)o1", "inhibition [%]": 12.3}
{"chem_smiles": "Cn1c(=O)c2c(nc(SCCCC#N)n2Cc2ccccc2F)n(C)c1=O", "inhibition [%]": 12.9}
{"chem_smiles": "COc1ccc(N2CCN(Cc3nc4c(c(=O)[nH]c(=O)n4C)n3CC(C)=O)CC2)cc1", "inhibition [%]": 4.33}
{"chem_smiles": "CC(C)NC(=O)CSCc1ccccc1Cl", "inhibition [%]": 9.82}
{"chem_smiles": "COc1ccccc1N(CN1CCCC1=O)C(=O)c1c(F)cccc1Cl", "inhibition [%]": 12.3}
{"chem_smiles": "CCCCn1c(CN2CCN(c3ccccc3)CC2)nc2c1c(=O)n(C)c(=O)n2C", "inhibition [%]": 1.46}
{"chem_smiles": "CCOC(=O)C1CCN(Cc2ccc(OC)c(C)c2OC)CC1", "inhibition [%]": -3.21}

Query molecule follows.
## Input Which inhibition reading was recorded for the molecule O=C(CSc1nnc(-c2ccccc2Br)o1)Nc1cccc2ccccc12 ?
## Output 1.31

----------
# tested_system: Voltage-gated potassium channel subunit beta-2 (Rattus norvegicus) (UniProt P62483)
# Sequence (P62483 whole entry, looked up): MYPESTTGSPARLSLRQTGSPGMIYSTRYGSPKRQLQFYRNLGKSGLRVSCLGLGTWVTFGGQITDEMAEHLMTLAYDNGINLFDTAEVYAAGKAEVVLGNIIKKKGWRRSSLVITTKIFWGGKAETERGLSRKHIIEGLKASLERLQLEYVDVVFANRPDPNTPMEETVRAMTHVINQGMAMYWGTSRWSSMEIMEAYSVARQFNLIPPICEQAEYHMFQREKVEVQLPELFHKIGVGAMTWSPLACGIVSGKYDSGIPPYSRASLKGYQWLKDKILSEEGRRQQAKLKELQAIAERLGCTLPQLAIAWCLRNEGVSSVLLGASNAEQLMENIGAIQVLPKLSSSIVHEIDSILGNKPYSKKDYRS
# protocol_description: enhancers of rat Kvbeta2 NADPH turnover – biochemical, NADPH fluorescence, primary screen (AID 623);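 note: fluorescence intensity change per second fitted from 20 to 320 s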
# conditions_used: Recombinant KvBeta, NADPH fluorescence decrease slope, 10 min; at 10 µM; stronger effect = lower value
Activity calls are given as the source filed them.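 The calls were made as follows: active = NADPH fluorescence slope more negative than the mean of all samples by about 3 SD, 99.7% confidence; inactive = the rest.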
quantity_measured: NADPH fluorescence slope

See these solved cases before continuing.
{"compound": "COC(=O)C1=C(C)NC(=O)C1(Nc1ccc(Cl)cn1)C(F)(F)F (stereo unspecified)", "NADPH fluorescence slope": "-1.2e-05 (inactive)"}
{"compound": "CCOc1ccc(S(=O)(=O)N2CCN(c3ccc(C)cc3C)CC2)cc1", "NADPH fluorescence slope": "-2.7e-05 (inactive)"}
{"compound": "CCOC(=O)c1[nH]c(CSc2nnc(-c3ccc(OC)cc3)o2)c(C(=O)OCC)c1C", "NADPH fluorescence slope": "-5.8e-05 (inactive)"}
{"compound": "Cc1ccccc1N1OC2C(=O)N(c3ccc(F)cc3)C(=O)C2C1c1ccccn1 (stereo unspecified)", "NADPH fluorescence slope": "-1.4e-05 (inactive)"}
{"compound": "COC(=O)c1ccccc1NC(=O)C1CCN(S(=O)(=O)c2cc(C)ccc2OC)CC1", "NADPH fluorescence slope": "-2.4e-07 (inactive)"}

## Input Quick check: NADPH fluorescence slope of Cc1ccc2c(c1C)NC(=O)C2(O)CC(=O)c1ccc2c(c1)OCO2 (stereo unspecified) ?
## Output -5.3e-05 (inactive)

## Input // NADPH fluorescence slope lookup, key: CCOc1cc(C2CC(=O)N3CN(C4CCCCC4)CSC3=C2C#N)ccc1O (stereo unspecified)
## Output 1.8e-05 (inactive)

## Input Bench note: what NADPH fluorescence slope did O=S(=O)(c1ccc(S(=O)(=O)N2CCN3CCCC3C2)cc1)N1CCCC1 (stereo unspecified) show?
## Output -3.4e-05 (inactive)

----------
# tested_system: Voltage-gated potassium channel subunit beta-2 (Rattus norvegicus)
# protocol_description: enhancers of rat Kvbeta2 NADPH turnover – biochemical, NADPH fluorescence, primary screen (AID 623);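 note: fluorescence intensity change per second fitted from 20 to 320 s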
# conditions_used: Recombinant KvBeta, NADPH fluorescence decrease slope, 10 min; at 10 µM
Calls of active or inactive are those of the source.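 How the source made its calls: active means NADPH fluorescence slope more negative than the mean of all samples by about 3 SD, 99.7% confidence; inactive means the rest.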
Result category, one only: Y for active, N for inactive

Solved cases (5 shown):
{"compound": "CCOc1ccc(S(=O)(=O)NCC2CCCO2)c2cccnc12 (stereo unspecified)", "class_name": "N"}
{"compound": "COc1ccccc1NC(=O)C(C)NS(=O)(=O)c1ccc(F)cc1 (stereo unspecified)", "class_name": "N"}
{"compound": "COC(=O)CSC1=C(C#N)C(c2ccccc2)CC(=O)N1 (stereo unspecified)", "class_name": "N"}
{"compound": "COc1ccccc1NC(=O)NCCCN1CCN(c2cccc(Cl)c2)CC1", "class_name": "N"}
{"compound": "CCOC(=O)c1nc2sc3c(c2c(=O)[nH]1)CCCC3", "class_name": "N"}

## Input What classification did CCOC(=O)C1CCCN(c2c(N3CCN(c4ccccn4)CC3)c(=O)c2=O)C1 (stereo unspecified) end up with in this test?
## Output N

## Input Test call for this compound, please: Cc1ccc(C2=Nc3ccccc3NC(C)(c3ccc(C)o3)C2)o1 (stereo unspecified)
## Output N

## Input Hey, what did the test say about COc1ccc(CN(C(=O)c2cccs2)c2nccs2)cc1OC ?
## Output N

## Input Check the results log: what was the call for CCc1c(C)c2c(C)nn(-c3ccccc3)c2[nH]c1=O ?
## Output N

## Input For this compound, state the assay outcome: CCCC(=O)OCCn1c(Br)nc2c1c(=O)[nH]c(=O)n2C
## Output N

## Input Tell me the recorded outcome of this test for Cc1cc(C)n(-c2ccc(C(=O)Nc3ccc4c(c3)OCCO4)cc2)n1 .
## Output N

## Input How was CC(C)Cc1nc2oc3c(N4CCN(CCO)CC4)ncnc3c2c2c1CCCC2 classified in this test?
## Output N

## Input Test call, this compound: CN(C)CCCN1C(=O)C(=O)/C(=C(/O)c2ccncc2)C1c1cccc(Br)c1 (stereo unspecified)
## Output N

## Input How was O=C1Nc2ccccc2OC1CC(=O)N1CCCC1 (stereo unspecified) classified in this test?
## Output N

## Input Record lookup: outcome of this test for CCOC(=O)CCCOC(=O)c1ccc(S(=O)(=O)N(C)C)cc1 ?
## Output N

## Input Call for entry COc1ccc(C(=O)Cn2nnc(-c3cccs3)n2)cc1 :
## Output N

## Input Kindly provide the recorded test outcome for the following compound: COc1ccc(C(c2nnnn2C2CCCC2)N2CCC(C)CC2)c(OC)c1 (stereo unspecified)
## Output N

## Input Returns: the outcome recorded for COc1ccc2[nH]c(=O)c(CN(CC3CCCO3)C(=O)Nc3ccc(F)cc3)cc2c1 (stereo unspecified) in this assay.
## Output N

## Input What did the test return for N#Cc1ccc(CSc2nnc(-c3cccs3)n2-c2ccccc2)cc1 ?
## Output N

## Input # lookup: test call for O=S(=O)(c1ccc2c(c1)OCCO2)N1CCN(Cc2ccc3c(c2)OCO3)CC1
## Output N

## Input Given CCCCn1c2c(c3ccccc31)CCc1nonc1-2 , state the outcome it received in this test.
## Output N

## Input Assay result, entry C=CCNC(=O)c1cccc(Br)c1 — outcome?
## Output N

## Input Per the assay record, what outcome was assigned to COCCNC(=O)C(c1ccncc1)N(C(=O)Cn1nnc2ccccc21)c1ccc(OC)cc1 (stereo unspecified) ?
## Output N

## Input For this compound, state the assay outcome: CCN(CC)CCCn1c(=S)[nH]c2cc(Cl)ccc2c1=O
## Output Y

## Input # lookup: test call for CCOC(=O)CSc1nc2cccnc2n1-c1ccc(F)cc1
## Output N

## Input Status in this test for CCc1ccccc1N1CC23C=CC(O2)C(C(=O)O)C3C1=O (stereo unspecified) ?
## Output N

## Input State the result this test recorded for CCOC(=O)c1cccc(NC(=O)CSc2nnc(-c3cccnc3)n2C)c1 .
## Output N

## Input Entry c1ccc(CC2CCN(c3nc4ccccc4n4nnnc34)CC2)cc1 : call = ?
## Output N

----------
Quick reference: slope of the listed items.
# tested_system: Alpha-2C adrenergic receptor (Homo sapiens)
# protocol_description: compounds altering alpha2C-coupled GIRK flux – cell-based, HEK293 alpha2C/GIRK1/2, thallium flux, primary screen (AID 624);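 note: slope of fluorescence ratio to pre-addition baseline per second over 15 to 24 s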
# conditions_used: thallium flux BTC fluorescence, at 10 µM, actives lie on both sides
Calls of active or inactive are those of the source.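 The calls were made as follows: active = fluorescence slope after compound addition differing from the mean of all screened samples at 99.7% confidence, in either direction; inactive = the rest.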

Below, 5 compounds whose answers are already recorded.
{"compound": "COc1ccc(C(=O)Cn2nnc(-c3cccs3)n2)cc1", "slope": "0.00512 (inactive)"}
{"compound": "CC1(C)CC(=O)CC(C2(O)C(=O)N(Cc3ccccc3)c3ccccc32)O1 (stereo unspecified)", "slope": "0.00527 (inactive)"}
{"compound": "COCCN1Cc2cccc(C(=O)Nc3cccnc3)c2C1=O", "slope": "0.00506 (inactive)"}
{"compound": "CCN1C(=O)Cc2cc(S(=O)(=O)N3CCOCC3)ccc21", "slope": "0.00585 (inactive)"}
{"compound": "CCc1nnc(NC(=O)CSc2nnc3scc(-c4ccc(C)cc4)n23)s1", "slope": "0.00638 (inactive)"}

## Input Reported slope for c1cn2cc(CSC3CCCCC3)nc2s1 : what is it?
## Output 0.00605 (inactive)
